system: PPARg homodimer (NR concentration 180 nM); experiment: PBM binding z-score (relative to random genomic background probes); higher = stronger binding; sequences stand for … in GC…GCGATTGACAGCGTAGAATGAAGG
Given measured PBM binding z-score, output t if it is greater than or equal to 0.8 and f if not.

Please review the entries below; each comes with its answer.
Sequence code: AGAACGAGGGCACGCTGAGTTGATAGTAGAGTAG
Study system: PPARg homodimer (NR concentration 180 nM)
Assigned label: f
--
Sequence code: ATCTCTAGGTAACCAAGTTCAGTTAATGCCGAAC
Study system: PPARg homodimer (NR concentration 180 nM)
Assigned label: t
--
Sequence code: TTACCAAGGTGAGCTGAGGACGTTGATCCAACTC
Study system: PPARg homodimer (NR concentration 180 nM)
Assigned label: f
--
Sequence code: CCTACTGGGCCAAAAAGGTCATTCATGCCGATAA
Study system: PPARg homodimer (NR concentration 180 nM)
Assigned label: t
--
Sequence code: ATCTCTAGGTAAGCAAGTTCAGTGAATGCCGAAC
Study system: PPARg homodimer (NR concentration 180 nM)
Assigned label: f

Then there is this sequence:
Ask | Hi, just wondering whether `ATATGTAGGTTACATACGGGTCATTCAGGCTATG` shows PBM binding z-score of 0.8 or higher.
Reply | t
